Test: Oral bioavailability in dog
Assay type: ADME, organism-based, Canis lupus familiaris
Conditions: in vivo
assay readout: bioavailability (%)
State the answer as a number, implicitly in %.

Exercise: bioavailability lookup needed for COc1cc2c(N3CCN(C(=O)Nc4ccc(OC(C)C)cc4)CC3)ncnc2cc1OCCCN1CCCCC1 , thanks.
Solution: 50

====

Test system: MV4-11
Test: Antiproliferative activity against human MV4-11 cells after 48 hrs by CellTiter-Glo assay
Assay type: functional, cell-based
Conditions: MV4-11, 48 h
assay readout: pIC50
In plain terms, pIC50 is the concentration in mol/L turned into minus its base-10 logarithm.

Exercise: pIC50 lookup needed for C1=N/C2=N/c3ccc(OCCN4CCCC4)c(c3)COC/C=C/COCc3cccc(c3)C(=C1)N2 , thanks.
Solution: 7.17
